Here's what we have: MIC numbers for Streptococcus sp. 80.

Solved entries:
molecule="CCC1OC(=O)CC(O)C(C)C(OC2OC(C)C(OC3CC(C)(O)C(O)C(C)O3)C(N(C)C)C2OC(C)=O)C(CC=O)CC(C)C(=O)C=CC(C)=CC1COC(=O)CCc1ccccc1 (centres unmarked)" target_or_system="Streptococcus sp. 80" quantity=MIC measured="≤ 0.048 µg/mL"
molecule="CCC(=O)OCC1C=C(C)C=CC(=O)C(C)CC(CC=O)C(OC2OC(C)C(OC3CC(C)(O)C(O)C(C)O3)C(N(C)C)C2OC(=O)CC)C(C)C(O)CC(=O)OC1CC (centres unmarked)" target_or_system="Streptococcus sp. 80" quantity=MIC measured="0.78 µg/mL"
molecule="CCC1OC(=O)CC(O)C(C)C(OC2OC(C)C(OC3CC(C)(O)C(O)C(C)O3)C(N(C)C)C2O)C(CC=O)CC(C)C(=O)C=CC(C)=CC1COC(=O)NCCCO (centres unmarked)" target_or_system="Streptococcus sp. 80" quantity=MIC measured="0.39 µg/mL"
molecule="CCC1OC(=O)CC(O)C(C)C(OC2OC(C)C(OC3CC(C)(O)C(O)C(C)O3)C(N(C)C)C2O)C(CC=O)CC(C)C(=O)C=CC(C)=CC1COC(=O)NCCCCCCCCN (centres unmarked)" target_or_system="Streptococcus sp. 80" quantity=MIC measured="0.78 µg/mL"

I have this molecule here, CCC1OC(=O)CC(O)C(C)C(OC2OC(C)C(OC3CC(C)(O)C(O)C(C)O3)C(N(C)C)C2O)C(CC=O)CC(C)C(=O)C=CC(C)=CC1COC(=O)OC (centres unmarked) , and I need its recorded MIC. 0.78 µg/mL
